# system: T1, human IL4Rα/Fc (R and D Systems 604-4R) (human, UniProt P24394 26-231, limits assumed, biotin labelled in the assay of Example 5)
# T1 construct: bought protein; also called IL-4Rα/Fc (R&D systems Cat. No. 604-4R-050); not shown: Fc part of the bought fusion
# T1 sequence (looked up): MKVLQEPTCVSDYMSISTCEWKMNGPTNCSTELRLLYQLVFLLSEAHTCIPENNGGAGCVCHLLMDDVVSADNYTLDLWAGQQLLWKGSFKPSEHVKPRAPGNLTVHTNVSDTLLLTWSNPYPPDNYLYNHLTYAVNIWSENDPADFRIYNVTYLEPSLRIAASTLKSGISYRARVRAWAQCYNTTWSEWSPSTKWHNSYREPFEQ
# assay-notes: HTRF receptor-ligand assay, purified scFv against biotinylated human IL4
measurement-type: Ki (nM)
Answers are plain numbers, in nM.

Past entries and their recorded results:
Antibody 28 scFv (scFv, V domains shown, tested as purified scFv) VH: QVQLVQSGAEVKKPGASVKVSCKASGYAFTSYYMHWARQAPGQGLEWMGIINPSGGSTSYAQKFQGRVTMTRDTSTSTVYMELSSLRSEDTAVYYCARGKYWMYDWGNGTLVTVSS VL: LPVLTQPPSVSAAPGQKVTISCSGGSSSIGNSYVSWYQQLPGAAPKLLIYDNNKRPSGIPDRFSGFRSGTSATLAITGLQTGDEADYYCGTWDTSPVWEWPFGTGTKLTVL : 0.094
Antibody 18 scFv (scFv, V domains shown, tested as purified scFv) VH: QVQLVQSGAEVKKPGASVKVSCKASGYAFTSYYMHWARQAPGQGLEWMGIINPSGGSTSYAQKFQGRVTMTRDTSTSTVYMELSSLRSEDTAVYYCARGKWWWQHWGKGTLVTVSS VL: QSVLTQPPSVSAAPGQKVTISCSGGSSNIGNSYVSWYQQLPGTAPKLLIYDNNKRPSGIPDRFSGSKSGTSATLAITGLQTGDEADYYCGTWDTSTTPMPVFGTGTKLTVL : 0.7
Antibody 11 scFv (scFv, V domains shown, tested as purified scFv) VH: QVQLVQSGAEVKKPGASVKVSCKASGYAFTSYYMHWARQAPGQGLEWMGIINPSGGSTSYAQKFQGRVTMTRDTSTSTVYMELSSLRSEDTAVYYCARGKWWFYDWGKGTLVTVSS VL: QSVLTQPPSVSAAPGQKVTISCSGGSSNIGNSYVSWYQQLPGTAPKLLIYDNNKRPSGIPDRFSGSKSGTSATLAITGLQTGDEADYYCGTWDTSPSMIPLFGTGTKLTVL : 0.7
Antibody 7 scFv (scFv, V domains shown, tested as purified scFv) VH: QVQLVQSGAEVKKPGASVKVSCKASGYAFTSYYMHWARQAPGQGLEWMGIINPSGGSTSYAQKFQGRVTMTRDTSTSTVYMELSSLRSEDTAVYYCARGKWWWQYWGKGTLVTVSS VL: QSVLTQPPSVSAAPGQKVTISCSGGSSNIGNSYVSWYQQLPGTAPKLLIYDNNKRPSGIPDRFSGSKSGTSATLAITGLQTGDEADYYCGTWDTSSPPQPIFGTGTKLTVL : 1.1
Antibody 5 scFv (scFv, V domains shown, tested as purified scFv) VH: QVQLVQSGAEVKKPGASVKVSCKASGYAFTSYYMHWARQAPGQGLEWMGIINPSGGSTSYAQKFQGRVTMTRDTSTSTVYMELSSLRSEDTAVYYCARGKWWLYDWGKGTLVTVSS VL: QSVLTQPPSVSAAPGQKVTISCSGGSSNIGNSYVSWYQQLPGTAPKLLIYDNNKRPSGIPDRFSGSKSGTSATLAITGLQTGDEADYYCGTWDTSSPPQPIFGTGTKLTVL : 0.6

Your task in this section: give Ki for each listed record.
1. Antibody 10 scFv (scFv, V domains shown, tested as purified scFv) VH: QVQLVQSGAEVKKPGASVKVSCKASGYAFTSYYMHWARQAPGQGLEWMGIINPSGGSTSYAQKFQGRVTMTRDTSTSTVYMELSSLRSEDTAVYYCARGKWWLYDWGKGTLVTVSS VL: QSVLTQPPSVSAAPGQKVTISCSGGSSNIGNSYVSWYQQLPGTAPKLLIYDNNKRPSGIPDRFSGSKSGTSATLAITGLQTGDEADYYCGTWDTSTVLTPIFGTGTKLTVL
2. Antibody 42 scFv (scFv, V domains shown, tested as purified scFv) VH: QVQLVQSGAEVKKPGASVKVSCKASGYAFTSYYMHWARQAPGQGLEWVGIINPSGGSTSYAQKFQGRVTMTRDTSTSTVYMELSSLRSGDTAVYYCARGKYWMYDWGKGTLVTVSS VL: QAVLTQPPSVSAAPGQKVTISCSGGSSNIGNSYVSWYQRLPGAAPKLLIYDNNKRPSGIPDRFSGSKSGTSATLAITGLQTGDEADYYCGTWDTSTGWEWPFGTGTKLTVL
3. Antibody 26 scFv (scFv, V domains shown, tested as purified scFv) VH: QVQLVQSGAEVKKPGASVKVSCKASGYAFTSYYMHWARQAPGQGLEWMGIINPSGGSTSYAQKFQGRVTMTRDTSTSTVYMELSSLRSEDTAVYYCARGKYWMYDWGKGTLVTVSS VL: QSVLTQPPSVSAAPGQKVTISCSGGSSNIGNSYVSWYQQLPGTAPKLLIYDNNKRPSGIPDRFSGSKSGTSATLAITGLQTGDEADYFCGTWDTSTVWEWPFGTGTKLTVL
4. Antibody 20 scFv (scFv, V domains shown, tested as purified scFv) VH: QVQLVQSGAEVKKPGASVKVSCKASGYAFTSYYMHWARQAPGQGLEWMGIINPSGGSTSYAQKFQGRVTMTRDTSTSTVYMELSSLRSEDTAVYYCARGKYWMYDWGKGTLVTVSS VL: QSVLTQPPSVSAAPGQKVTISCSGGSSNIGNSYVSWYQQLPGTAPKLLIYDNNKRPSGIPDRFSGSKSGTSATLAITGLQTGDEADYYCGTWDTSTVWEWPFGTGTKLTVL
5. Antibody 29 scFv (scFv, V domains shown, tested as purified scFv) VH: QVQLVQSGAEVKKPGASVKVSCKASGYAFTSYYMHWARQAPGQGLEWMGIINPSGGSTSYAQKFQGRVTMTRDTSTSTVYMELSSLRSEDTAVYYCARGKYWMYDWGKGTRVTVSS VL: QSVLTQPPSVSAAPGQKVTISCSGGSSNIGNSYVSWYQQLPGTAPKLLIYDNNKRPSGIPDRFSGSKSGTSATLAITGLQTGDEADYYCGTWDTSPVWEWPFGTGTKLTVL

Response line:
0.5
0.027
0.1
0.7
0.061
